substrate: CC1=C(CCC(=O)O)c2cc3nc(cc4[nH]c(cc5[nH]c(cc1n2)c(C)c5CCC(=O)O)c(CCC(=O)O)c4C)C(CCC(=O)O)=C3C; experiment: purified protein; format: biochemical, Corynebacterium glutamicum; conditions: ferrous ammonium sulfate 100 uM, Tris-HCl pH 8.0, 3.3% Tween 20, 5 mM glutathione, 30 °C
READOUT: Km

| PROTEIN | READOUT | VALUE_OBSERVED |
| --- | --- | --- |
| CpfC (coproporphyrin ferrochelatase) (Corynebacterium glutamicum ATCC 13032; T194S) (protein, heterologously expressed in E. coli BL21, purified) MNERTSDAFDALLVLSFGGPEGHEEVRPFLENVTHGRGIPPERLDEVAVHYHHFGGISPINALNREIIANVEKELASRDHKLPVYFGNRNWKPFDNEAAEQMADDGVKNALVLATSAWGGYSGCRQYQEDIQGMIKHLESQGQSITFTKLRQFYDHPRFVSTMAQLVQDSYAKLPDELRDEARLVFTAHSIPLSADNAAGTPEDGSLYSTQVKEASALIAEAVGVSDFDVVWQSRSGSPHTPWLEPDIVDHAVELNEKGQKALVVCPVGFISDHMEVIWDLDSELMEEAEKRNMVVERVATVGPTDEFAALVVDLIEEAELKRVIERLGKLPARGSSVNGAPCGDGCCGTAKHKTARVNPNARSAAPAAN | Km | 11.63 ± 1.50 × 10^-3 mM |

# Km of CpfC (coproporphyrin ferrochelatase) (Corynebacterium glutamicum ATCC 13032; E100D) (protein, heterologously expressed in E. coli BL21, purified) MNERTSDAFDALLVLSFGGPEGHEEVRPFLENVTHGRGIPPERLDEVAVHYHHFGGISPINALNREIIANVEKELASRDHKLPVYFGNRNWKPFDNEAADQMADDGVKNALVLATSAWGGYSGCRQYQEDIQGMIKHLESQGQSITFTKLRQFYDHPRFVSTMAQLVQDSYAKLPDELRDEARLVFTAHSIPLTADNAAGTPEDGSLYSTQVKEASALIAEAVGVSDFDVVWQSRSGSPHTPWLEPDIVDHAVELNEKGQKALVVCPVGFISDHMEVIWDLDSELMEEAEKRNMVVERVATVGPTDEFAALVVDLIEEAELKRVIERLGKLPARGSSVNGAPCGDGCCGTAKHKTARVNPNARSAAPAAN = 9.40 ± 1.50 × 10^-3 mM

The reported measurements were obtained from paper PMC10465345.
